Below is a list of entries, each paired with its recorded % degradation in 24 h when incubated with simulated intestinal fluid value.
test: Stability in simulated intestinal fluid; format: in vitro ADME; details: 2 μM, 37° C., pH 7.5, 24 h
Where a SMILES comes first, the peptide text is derived from it. [ ]: non-standard residue; d: D form. ξ: configuration not given here. ξαMeBip(2'-Et,4'-OMe) = CCc1cc(OC)ccc1-c1ccc(CC(C)(N)C(=O)O)cc1; ξhhPhe = NC(CCCc1ccccc1)C(=O)O; ξαMeD = CC(N)(CC(=O)O)C(=O)O
PARAMETER: % degradation in 24 h when incubated with simulated intestinal fluid (%)

{"COMPOUND": "CCc1cc(OC)ccc1-c1ccc(CC(C)(NC(=O)C(C)(CC(=O)O)NC(=O)[C@H](CO)NC(=O)[C@@H](NC(=O)[C@H](Cc2ccccc2)NC(=O)[C@@H](NC(=O)CNC(=O)[C@H](CCC(=O)O)NC(=O)[C@H](C)NC(=O)[C@H](Cc2c[nH]cn2)NC(=O)[C@@H](N)C(C)C)[C@@H](C)O)[C@@H](C)O)C(=O)NC(CCCc2ccccc2)C(N)=O)cc1 (some centres unmarked) [compound 62] (H-VHAEGTFTS[ξαMeD][ξαMeBip(2'-Et,4'-OMe)][ξhhPhe]-NH2)", "RESULT": "00"}
{"COMPOUND": "CCc1cc(OC)ccc1-c1ccc(CC(C)(NC(=O)[C@H](CC(=O)O)NC(=O)[C@H](CO)NC(=O)[C@@H](NC(=O)[C@H](Cc2ccccc2)NC(=O)[C@@H](NC(=O)CNC(=O)[C@H](CCC(N)=O)NC(=O)[C@H](CO)NC(=O)[C@H](Cc2c[nH]cn2)NC(=O)[C@@H](NC(=O)[C@@H](N)C(C)C)C(C)C)[C@@H](C)O)[C@@H](C)O)C(=O)NC(CCCc2ccccc2)C(N)=O)cc1 (some centres unmarked) [compound 205] (H-VVHSQGTFTSD[ξαMeBip(2'-Et,4'-OMe)][ξhhPhe]-NH2)", "RESULT": "00"}
